Target: recombinant yeast Hsp90
Experiment: ATPase inhibition assay
Conditions: read-out: ATPase; incubated with ATP
measured property: pIC50
Scale: pIC50 equals -log10([C]), with [C] in mol/L.

C[C@@H]1C[C@H]2O[C@@H]2/C=C\C=C\C(=O)Cc2c(Cl)c(O)cc(O)c2C(=O)O1 tested on recombinant yeast Hsp90 gave pIC50: 6.40
